# Tested on: Escherichia coli TOP10;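 note: peptides expressed intracellularly from a pBAD plasmid library in pooled LB shake-flask culture, induced with 0.3% L-arabinose, DNA abundance read by NGS, three biological replicates, DESeq2 with apeglm shrinkage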
# ASSAY_REMARKS: shrunken log2 fold change of peptide-encoding DNA abundance (4.5 h post-induction vs induction); higher = less antimicrobial activity (less host growth inhibition)
# CONDITION_LABEL: time post-induction: 4.5 h; library: site-saturation at positions 5, 18, 19, 20

SEQUENCE_CHAIN | shrunken log2 fold change
RRIRIRPPRLPRPRPRPRWMPRP | 0.341
RRIRFRPPRLPRPRPRPPPEPRP | 1.28
RRIRTRPPRLPRPRPRPYYSPRP | -0.274
RRIRLRPPRLPRPRPRPCWVPRP | -0.00196
RRIRRRPPRLPRPRPRPNNNPRP | -0.426
RRIRPRPPRLPRPRPRPWFKPRP | -0.125
RRIRDRPPRLPRPRPRPRACPRP | 0.389
RRIRVRPPRLPRPRPRPSESPRP | 0.0556
RRIRSRPPRLPRPRPRPKHLPRP | -0.466
RRIRKRPPRLPRPRPRPSSDPRP | 0.246
RRIRCRPPRLPRPRPRPQINPRP | -0.685
RRIRPRPPRLPRPRPRPRRCPRP | 0.388
RRIRHRPPRLPRPRPRPYESPRP | -0.0531
RRIRERPPRLPRPRPRPHRTPRP | -5.56e-05
RRIRMRPPRLPRPRPRPNPYPRP | -0.0714
RRIRKRPPRLPRPRPRPCYTPRP | -0.0178
RRIRARPPRLPRPRPRPRPKPRP | 0.916
RRIRYRPPRLPRPRPRPPTDPRP | -0.181
RRIRDRPPRLPRPRPRPFCFPRP | 0.265
RRIRERPPRLPRPRPRPNISPRP | -1.14
RRIRNRPPRLPRPRPRPFTIPRP | -0.28
RRIRHRPPRLPRPRPRPVFNPRP | -0.532
RRIRCRPPRLPRPRPRPCFQPRP | -0.212
RRIRWRPPRLPRPRPRPPTQPRP | 0.312
RRIRDRPPRLPRPRPRPLIVPRP | 0.173
RRIRGRPPRLPRPRPRPKLEPRP | 0.507
RRIRERPPRLPRPRPRPWVSPRP | -0.0377
RRIRLRPPRLPRPRPRPKRTPRP | 0.21
RRIRTRPPRLPRPRPRPKKIPRP | -0.437
RRIRGRPPRLPRPRPRPEYLPRP | 0.468
RRIRRRPPRLPRPRPRPFIEPRP | 0.0206
RRIRERPPRLPRPRPRPSRQPRP | -0.214
RRIRTRPPRLPRPRPRPSCMPRP | -0.0847
RRIRFRPPRLPRPRPRPSACPRP | 0.0977
RRIRSRPPRLPRPRPRPSATPRP | 0.168
RRIRARPPRLPRPRPRPLNMPRP | -0.502
RRIRSRPPRLPRPRPRPAKGPRP | 0.176
RRIRNRPPRLPRPRPRPLDSPRP | -0.125
RRIRHRPPRLPRPRPRPLRRPRP | 0.3
RRIRERPPRLPRPRPRPMDWPRP | 0.0151
RRIRHRPPRLPRPRPRPAMFPRP | 0.0207
RRIRYRPPRLPRPRPRPNDGPRP | -0.0117
RRIRWRPPRLPRPRPRPDGNPRP | 0.276
RRIRKRPPRLPRPRPRPDFSPRP | 0.0114
RRIRNRPPRLPRPRPRPDHWPRP | 0.0703
RRIRWRPPRLPRPRPRPGPEPRP | 0.809
RRIRERPPRLPRPRPRPTIIPRP | -0.664
RRIRFRPPRLPRPRPRPGSTPRP | -0.183
RRIRYRPPRLPRPRPRPECVPRP | -0.282
RRIRCRPPRLPRPRPRPHQKPRP | 0.00571

Attribution: the supplement of paper PMC9112550
